Measured values drawn from PubChem BioAssay (NCI) for this set.

tested on: IGROV1 ovarian; assay: NCI-60 one-dose screen, 48 h (100 = growth as untreated, 0 = no growth, -100 = all killed); conditions: 10 µM unless noted
This is part of a sample that, as a whole, favours compounds with a hit. Of some 83,000 tested, about 20% had one in any assay. The source made the active and inactive calls. Rule for the calls: active = growth percent below 10; inactive = the rest.
PROPERTY_NAME: growth

Here's what some known entries look like.
MOLECULE	RESULT
Cc1nc([P+](c2ccccc2)(c2ccccc2)c2ccccc2)c(N2CCCCC2)o1	32.8% (inactive)
COc1ccc(C2[C@@H](c3ccccc3)C(=O)N2c2cc(OC)c(OC)c(OC)c2)cc1F (stereo partly drawn)	18.8% (inactive)
C#Cc1cccc(NC(=O)C2CCCCN2C(=O)CCl)c1 (stereo not drawn)	-69.9% [8.25 µM] (active)
COCCn1cc(-c2csc(-c3c[nH]c4ccccc34)n2)c2cccnc21	41.8% (inactive)
Cc1ccc(OCCOCCOCCOCCOCCOc2ccc(C)n(O)c2=S)c(=S)n1O	15.5% (inactive)
CC(C)CCC[C@@H](C)[C@H]1CC[C@H]2[C@@H]3CC=C4c5sc(Nc6cc(C(F)(F)F)cc(C(F)(F)F)c6)nc5CC[C@]4(C)[C@H]3CC[C@]12C	97.7% (inactive)

Would you be so kind as to report growth for each listed record?
1. COc1ccc(/C=C(\C(=O)NCc2cccnc2)S(=O)(=O)c2ccccc2)cc1OC
2. CC1(C)CC[C@]2(CO)CC[C@]3(C)[C@](O)([C@H](O)C[C@@H]4[C@@]5(C)CCCNC(C)(C)[C@@H]5CC[C@]43C)[C@@H]2C1
3. ClCCn1cnc2c(SCc3ccccc3)ncnc21
4. COCCn1cc(-c2nc(-c3c[nH]c4ncccc34)cs2)c2ccccc21
5. CCCCCCCCCCOC(=O)c1nn(C(C)=O)c2cc(C)c(C)cc12
6. O=C(NNc1nc2cc(F)ccc2n2c(CN3CCOCC3)ccc12)c1ccccc1

Result ::
19.7% (inactive)
102% (inactive)
133% (inactive)
36% (inactive)
103% (inactive)
3.07% (active)

Would you be so kind as to report growth for each listed record?
1. O=C(OCc1ccc2c(Cl)cc(Cl)c(O)c2n1)N1CCN(C(=O)c2cc3ccccc3[nH]2)CC1
2. CC(C)(C)OC(=O)CN1CCc2c(sc3ncnc(N4CCN(c5ccc(F)cc5)CC4)c23)C1
3. CCOC(=O)c1nnn(Cc2cc(=O)oc3ccc(O)cc23)c1C
4. O=C(NCCCCO)c1cncnc1Nc1ccc2c(ccn2Cc2cccc(F)c2)c1
5. COc1ccc(/C=C/C(c2cc(OC)c(OC)c(OC)c2)n2cncn2)cc1O (stereo not drawn)
6. Cc1ccc(Cc2cnc(NC(=O)/C=C/c3ccc(C)o3)s2)cc1

Result ::
18.5% (inactive)
89.8% (inactive)
106% (inactive)
88.1% (inactive)
50.5% (inactive)
42.2% (inactive)

Would you be so kind as to report growth for each listed record?
1. O=C1/C(=C/c2ccccn2)SC(=S)N1N1CCOCC1
2. O=C(Nc1cc(Cl)cc(Cl)c1)Oc1c(Cl)c(Cl)c(Cl)c(Cl)c1Cl
3. CN1C(=O)/C(=C/c2ccc(C(=O)Nc3ncc(Cc4cccc(C(F)(F)F)c4)s3)cc2)SC1=S

Result ::
1. 94.1% (inactive)
2. 79.2% (inactive)
3. 56.7% (inactive)

Would you be so kind as to report growth for each listed record?
1. Nc1[nH]nc2nc(-c3ccccc3)n3c4ccccc4nc3c12
2. O=C1CCCCN1c1ccc(C2=NCCCN2)cc1
3. COc1ccc(C2CC(c3ccccc3)=NN2C(=O)c2cc(OC)c(OC)c(OC)c2)cc1O (stereo not drawn)

Result ::
77.9% (inactive)
95.9% (inactive)
3.37% (active)

Would you be so kind as to report growth for each listed record?
1. N#Cc1c(-c2cccc(Cl)c2)cc(-c2cccnc2)[nH]c1=O
2. CCn1cc(C(=O)N/N=C/c2ccccc2)c(=O)c2cc(F)c(N3CCNC(C)C3)c(F)c21 (stereo not drawn)
3. COC1C(O)CC(OC2CC(OC3CC(O[C@@H]4C(=O)c5c(cc6cc(OC7CC(OC8CC(O)C(O)C(C)O8)C(O)C(C)O7)c(C)c(O)c6c5O)CC4[C@H](OC)C(=O)C(C)=O)OC(C)C3O)OC(C)C2O)OC1C (stereo partly drawn)

Result ::
["72.4% (inactive)", "58% (inactive)", "13.6% (inactive)"]

Would you be so kind as to report growth for each listed record?
1. Cc1c(O)cc(-c2cnc(N/N=C/c3ccccc3)s2)c(O)c1C
2. Cc1ccc2cnc(N)c(C#Cc3cc(C(=O)Nc4ccc(CN5CCN(C)CC5)c(C(F)(F)F)c4)cnc3C)c2c1
3. Nc1c(Br)cc2c(c1Br)Cc1cc([N+](=O)[O-])ccc1-2
4. CCOC(=O)c1c(C)nc2c(c1N)C(=O)C(=O)N2Cc1ccc(OC)cc1
5. COC(=O)c1ccc2c(c1)c1c(C)c3cnccc3c(C)c1n2C

Result ::
1: 83.8% (inactive); 2: 11% (inactive); 3: 135% (inactive); 4: 82.5% (inactive); 5: -33.1% (active)

Query :: Item O=C(O)CC(C(=O)O)/C(=C\c1ccccc1)c1ccccc1 (stereo not drawn) has what recorded growth?
Result :: 120% (inactive)

* * *

System: SF-539 CNS
Assay: NCI-60 one-dose screen, 48 h (100 = growth as untreated, 0 = no growth, -100 = all killed)
Conditions: 10 µM unless noted
Description: Cells are grown in 96 well plates and exposed to the test compound for 48 hours. Compounds are tested at a single concentration, which is 10^-5 M for most compounds. The reported endpoint is percent growth (GI% or GIPRCNT), where numbers from 0 - 100% represent growth inhibition, and numbers from -100% - 0 represent cell death. For example, a value of 40 represents 60% growth inhibition. A value of 0 means no net growth occurred over the course of the experiment. […]
The panel holds about 83,000 compounds, 20% with a hit somewhere; the sample as a whole holds those more often.
PROPERTY_NAME: growth (%)
Answers are plain numbers, in %.

>>> df
                                   molecule  quantitative_result
0  CCCC(=O)NC(c1ccc2c(c1)OCO2)c1cc(Cl)c2cccnc2c1O (stereo not drawn)                 18.6
1  COc1cc([C@@H](CCO)C[C@H](C)c2ccc3ccccc3c2)cc(OC)c1OC                 9.87
2  CCOC(=O)C#Cc1c(C(=O)OCC)nnn1[C@@H]1O[C@H](COC)[C@@H](OC)[C@H]1OC                 84.7
3  O=c1oc2ccccc2cc1-c1nn(-c2ccccc2)cc1-c1nn[nH]n1                 97.4
4  Cc1oc(-c2ccc(Cl)cc2)nc1C1=NN(C(=O)c2ccncc2)C(c2ccccc2)C1 (stereo not drawn)                 95.6
5  CCC(C)(C)c1ccc(Nc2ccc(Nc3ccc(C(C)(C)CC)cc3)cc2)cc1                  102
6       CN(C)c1ccc(C(=S)c2ccc(N(C)C)cc2)cc1                 77.1
7  C=C[C@@]1(C)CC(=O)[C@@H](C(C)(C)c2cn(C)c3ccc(Br)cc23)C[C@@H]1O[Si](C)(C)C(C)(C)C                 97.3

Would you be so kind as to report growth for each listed record?
1. COc1cc2c(cc1-c1c(C)noc1C)ncc1nc(CN3CCOCC3)n([C@H](C)COC(F)F)c12
2. COc1ccc2c(c1)CC[C@@H]1[C@@H]2CC[C@]2(C)C3C(=CC(COC(C)=O)C4C(=O)N(c5ccc(Cl)cc5)C(=O)C43)C[C@@H]12 (stereo partly drawn)
3. CCOC(=O)c1c(C)nc2ccccc2c1/C=C/c1ccc(F)cc1
4. CS(=O)(=O)Nc1cc(-c2ccc3ncnc(Nc4ccc(OCc5ccccn5)c(Cl)c4)c3c2)cnc1Cl
5. CC(C)C1C2=C(NCCN1C(=O)c1ccncc1)C(C)(C)N(Cc1ccccc1)C2=O (stereo not drawn)

Result ::
1: 35.1; 2: 114; 3: 81; 4: -11.7; 5: 108

* * *

system: A498 renal; assay: NCI-60 one-dose screen, 48 h; conditions: 10 µM unless noted
The panel holds about 83,000 compounds, 20% with a hit somewhere; the sample as a whole holds those more often. Activity calls are given as the source filed them. How the source made its calls: active means growth percent below 10; inactive means the rest.
Give your call using only these classes: yes (active), no (inactive)

Some entries whose results are on file:
>>> df
                                   molecule  label_value
0  COCC(=O)Oc1cc(-c2ccc(C)cc2C)c(OC(=O)COC)c(-c2ccc(C)cc2C)c1           no
1  O=c1cc(CP(=O)(O)O)c2cc(O)c(-c3ccccc3)cc2o1           no
2  CCOC(=O)c1cnn(CC(C)O)c1NC(=O)NCc1ccccc1C(F)(F)F (stereo not given)           no

Query :: Short answer needed: outcome of this test for `COc1cc(-c2ccc[nH]2)[nH]c1/C=C1\N=C(C)C(CC(=O)OCC(C)(C)C)=C1C` ?
Result :: yes

Query :: Short answer needed: outcome of this test for `NC(=O)c1ccccc1OCC(=O)Nc1ccc(Cl)c(Cl)c1` ?
Result :: no
